- target.system: cloned human 5HT1A receptors (Homo sapiens)
- Sequence (P08908 1-422): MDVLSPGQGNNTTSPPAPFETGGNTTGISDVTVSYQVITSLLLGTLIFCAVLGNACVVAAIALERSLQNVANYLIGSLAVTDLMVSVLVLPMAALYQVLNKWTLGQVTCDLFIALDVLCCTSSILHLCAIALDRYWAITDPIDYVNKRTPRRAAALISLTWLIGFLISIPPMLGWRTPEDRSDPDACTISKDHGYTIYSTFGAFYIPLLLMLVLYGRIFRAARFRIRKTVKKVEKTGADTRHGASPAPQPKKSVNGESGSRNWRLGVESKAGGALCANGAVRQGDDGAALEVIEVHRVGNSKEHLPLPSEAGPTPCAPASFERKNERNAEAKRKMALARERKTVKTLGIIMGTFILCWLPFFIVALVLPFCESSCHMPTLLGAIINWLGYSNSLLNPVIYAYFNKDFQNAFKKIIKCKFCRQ
Could you please report measured IC50 for the items listed next?
Quick reminder: number only, in nM, skip the unit.

Requested read-out: IC50. Entry: Cc1ccc2c3c(ccc2n1)OCC(CN1CC=C(c2c[nH]c4cc(F)ccc24)CC1)O3 (stereo not shown) [Example 10]
259

What IC50 value was documented for this compound, Fc1ccc2[nH]cc(C3=CCN(C[C@H]4COc5ccc6ncccc6c5O4)CC3)c2c1 [Example 2] ?
243

Which measured IC50 value corresponds to Nc1ccc2c3c(ccc2n1)OC[C@H](CN1CC=C(c2c[nH]c4ccc(F)cc24)CC1)O3 [Example 18] ?
84.9

Entry under review: Cn1cc(C2=CCN(C[C@H]3COc4ccc5ncccc5c4O3)CC2)c2cc(F)ccc21 [Example 7] . Reported IC50?
1080

----------
Provide the recorded pKi for the entries that follow.
- target.system: serotonin transporter (Rattus norvegicus, UniProt P31652)
- Construct: displace ^3H-paroxetine from male rat frontal cortical membranes; from tissue; host or cells: male rat frontal cortex membranes
- Sequence (P31652 whole entry): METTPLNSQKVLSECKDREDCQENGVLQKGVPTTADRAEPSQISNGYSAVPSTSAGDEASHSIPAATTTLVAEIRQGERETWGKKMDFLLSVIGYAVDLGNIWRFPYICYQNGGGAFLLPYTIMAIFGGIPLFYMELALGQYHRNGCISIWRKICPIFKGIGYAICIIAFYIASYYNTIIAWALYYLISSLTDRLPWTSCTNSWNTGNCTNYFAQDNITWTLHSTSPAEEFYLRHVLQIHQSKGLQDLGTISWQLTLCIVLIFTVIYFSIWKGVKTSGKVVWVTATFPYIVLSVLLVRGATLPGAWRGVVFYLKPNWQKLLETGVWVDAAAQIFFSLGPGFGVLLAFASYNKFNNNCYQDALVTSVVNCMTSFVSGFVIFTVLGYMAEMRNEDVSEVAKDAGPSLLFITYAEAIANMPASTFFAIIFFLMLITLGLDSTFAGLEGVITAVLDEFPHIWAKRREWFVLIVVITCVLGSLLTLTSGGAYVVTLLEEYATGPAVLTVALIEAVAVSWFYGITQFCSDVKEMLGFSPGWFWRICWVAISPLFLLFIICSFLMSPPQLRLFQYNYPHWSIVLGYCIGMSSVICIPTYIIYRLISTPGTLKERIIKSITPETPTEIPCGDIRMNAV
- test.description: 3H-paroxetine displacement, affinity for the serotonin transporter
- Type: binding
In textbook form, pKi equals minus log to base ten of the concentration in mol/L.

Fill in the blank: the reported pKi of Cc1ccc2c3c(ccc2n1)OCC(CN1CC=C(c2c[nH]c4ccccc24)CC1)O3 (stereo not shown) [Example 9] is ____.
8.63

May I ask what pKi has been recorded for Fc1ccc2[nH]cc(C3=CCN(C[C@H]4COc5ccc6ncccc6c5O4)CC3)c2c1 [Example 2] ?
8.55

Entry Cc1cnc2ccc3c(c2c1)OC(CN1CC=C(c2c[nH]c4ccccc24)CC1)CO3 (stereo not shown) [Example 23] : reported pKi = ?
7.55

pKi for Cn1cc(C2=CCN(C[C@H]3COc4ccc5ncccc5c4O3)CC2)c2cc(F)ccc21 [Example 7] ?
8.07

Need pKi of Cc1ccc2c3c(ccc2n1)OC[C@H](CN1CC=C(c2c[nH]c4c(F)cccc24)CC1)O3 [Example 21] , thanks.
8.53

// lookup pKi for Cc1ccc2c3c(ccc2n1)OCC(CN1CC=C(c2c[nH]c4ccc(F)cc24)CC1)O3 (stereo not shown) [Example 11]
8.26

Which measured pKi value corresponds to Fc1ccc2[nH]cc(C3=CCN(CC4COc5cc(F)c6ncccc6c5O4)CC3)c2c1 (stereo not shown) [Example 15] ?
8.82

Return reported pKi; argument: Fc1cc2c(c3cccnc13)OC(CN1CC=C(c3c[nH]c4ccccc34)CC1)CO2 (stereo not shown) [Example 16]
7.68

Could you share which pKi value was measured for C1=C(c2c[nH]c3ccccc23)CCN(C[C@H]2COc3ccc4ncccc4c3O2)C1 [Example 4] ?
8.47

Please report the recorded pKi for Cc1ccc2c3c(ccc2n1)OCC(CN1CCC(c2c[nH]c4ccccc24)CC1)O3 (stereo not shown) [Example 12] .
8.62

Which pKi is listed for COc1cc2c(c3cccnc13)O[C@@H](CN1CC=C(c3c[nH]c4ccc(F)cc34)CC1)CO2 [Example 17] ?
8.32

Look up pKi for this compound: N#Cc1ccc2[nH]cc(C3=CCN(CC4COc5ccc6ncccc6c5O4)CC3)c2c1 (stereo not shown) [Example 5]
8.60

Data request, read-out pKi, for Cc1ccc2c3c(ccc2n1)OCC(CN1CC=C(c2c[nH]c4cc(F)ccc24)CC1)O3 (stereo not shown) [Example 10]
8.10

Which pKi value belongs to COc1ccc2[nH]cc(C3=CCN(C[C@H]4COc5ccc6ncccc6c5O4)CC3)c2c1 [Example 1] ?
7.27

May I ask what pKi has been recorded for Nc1ccc2c3c(ccc2n1)OC[C@H](CN1CC=C(c2c[nH]c4ccc(F)cc24)CC1)O3 [Example 18] ?
9.18

Endpoint output: pKi of CCc1ccc2c3c(ccc2n1)OCC(CN1CC=C(c2c[nH]c4ccc(F)cc24)CC1)O3 (stereo not shown) [Example 14] . Value?
7.85

Bench note: what pKi did NC(=O)c1ccc2[nH]cc(C3=CCN(C[C@H]4COc5ccc6ncccc6c5O4)CC3)c2c1 [Example 6] show?
8.45

Name the reported pKi value associated with the compound Cc1ccc2[nH]cc(C3=CCN(CC4COc5ccc6nc(C)ccc6c5O4)CC3)c2c1 (stereo not shown) [Example 22]
7.23

Recorded pKi for CCc1ccc2c3c(ccc2n1)OCC(CN1CC=C(c2c[nH]c4ccccc24)CC1)O3 (stereo not shown) [Example 13] , please?
8.31

Data provenance is patent US6458802B1.
